- System: OVCAR-8 ovarian
- experimental-details: NCI tumour cell line growth inhibition, 48 h
measured-quantity: TGI

# example entries with known answers
molecule	TGI
NC1=NN(c2ccccc2)C(=O)C1C(=O)CCC(=O)Nc1cccc(Cl)c1 (stereo unspecified)	> 100 µM
C[C@]12CC=CC(=O)[C@@]1(C)CCC(=O)C2	> 100 µM
Cc1cc(C)c2c(=O)cc(-c3cccc4ccccc34)[nH]c2n1	7.38 µM

Considering N[C@H](C(=O)O)[C@@H]1CC(Cl)=NO1 , its TGI with OVCAR-8 ovarian was recorded as 502 µM

Considering CCOC(=O)c1ccc(N=C/C=C(\Nc2ccc(C(=O)OCC)cc2)C23CC4CC(CC(C4)C2)C3)cc1 , its TGI with OVCAR-8 ovarian was recorded as > 100 µM

Considering O=C1C=C(C2OC(CO)C(O)C2O)C(=O)N1 (stereo unspecified) , its TGI with OVCAR-8 ovarian was recorded as > 100 µM

Considering NC(N)=NS(=O)(=O)c1ccc(NNc2c3ccccc3nc3ccccc23)cc1 , its TGI with OVCAR-8 ovarian was recorded as 31.1 µM

Considering O=C(O)CO[C@@]12C#C/C=C\C#C[C@@H]3N(C(=O)Oc4ccccc4)c4ccccc4[C@]14O[C@@]34CCC2 , its TGI with OVCAR-8 ovarian was recorded as > 100 µM

Considering C=C(CCOC)CCC1CCCCC(CN(C)C)C1=O (stereo unspecified) , its TGI with OVCAR-8 ovarian was recorded as > 100 µM

Considering O=c1[nH]c2ccccc2cc1-c1nc2ccc(Cl)cc2[nH]1 , its TGI with OVCAR-8 ovarian was recorded as > 100 µM

Considering CCN1C(=O)/C(=C/c2c(Cl)[nH]c3cc(C)c(OC)cc23)c2ccccc21 , its TGI with OVCAR-8 ovarian was recorded as > 100 µM
